- ASSAY_EXPLANATION: Titration of dispersed solid with sodium hydroxide (pKa from titration curve)
- Type: physicochemical
- STATED_CONDITIONS: dispersion of the solid in deionized water, 1 weight percent dispersion in deionized water, 0.2 N NaOH; read-out: first pKa
PROPERTY_MEASURED: pKa

// query pKa value for entry Nc1nc(=O)c2nc(CNc3ccc(C(=O)N[C@@H](CCC(=O)O)C(=O)O)cc3)cnc2[nH]1
~6.1

* * *

- ASSAY_EXPLANATION: Titration of dispersed solid with sodium hydroxide (pKa from titration curve)
- Format: physicochemical
- STATED_CONDITIONS: dispersion of the solid in deionized water, 1 weight percent dispersion in deionized water, 0.2 N NaOH; read-out: second pKa
PROPERTY_MEASURED: pKa

// query pKa value for entry Nc1nc(=O)c2nc(CNc3ccc(C(=O)N[C@@H](CCC(=O)O)C(=O)O)cc3)cnc2[nH]1
~6.1

Origin of values: patent US20100028420A1
